Test system: COLO 205
PROTOCOL_NOTES: NCI tumour cell line growth inhibition, 48 h
The source made the active and inactive calls. Rule as the data show it: active = GI50 up to about 1.1 µM and inactive = higher.
ATTRIBUTE_MEASURED: GI50

N#Cc1c(C#N)c(-c2ccccc2)n(/N=C\c2ccccc2)c1N	22.5 µM (inactive)
Cc1ccc(NC(=O)CSc2nnc(Cc3ccccc3)o2)cc1	> 100 µM (inactive)
CN(/N=C/c1cccs1)c1ccc(Cl)cc1[N+](=O)[O-]	> 10 µM (inactive)

Each compound below has a reported value. Please supply its GI50.
1. C[n+]1c2ccccc2c(C(=O)Nc2ccc(S(=O)(=O)Nc3ncccn3)cc2)c2ccccc21
2. CC(=O)NCC1OC2COC(c3ccccc3)OC2C(NC(=O)c2ccccc2)C1OC(=O)c1ccccc1 (configuration not stated)
3. CC(=O)Oc1ccc2c(c1)CC[C@@H]1C2CC[C@]2(C)C(=O)NC(=O)CC12 (some centres not stated)
4. COc1cccc(OC)c1C1ON=C(c2ccccc2)N1C12CC3CC(CC(C3)C1)C2 (configuration not stated)

Outgoing:
> 100 µM (inactive)
> 100 µM (inactive)
> 100 µM (inactive)
> 100 µM (inactive)

Each recorded value in this set is attributed to ChEMBL document CHEMBL1201862.
